- Tested system: AhR (Homo sapiens, UniProt P35869)
- Assay notes: In Vitro Assay 3: XRE-luciferase reporter assay, agonism in human cell line (HepG2)
- Type: cell-based
- Set-up: endogenous in cells; host or cells: HepG2
- Setup conditions: class in brackets of the cell; HepG2, tryptophan free medium, 6 hours, no agonist; read-out: Assay 3: AhR-Luc Human Agonism (EC50)
pEC50: −log10 of the molar value.
Assay metric: pEC50

Problem: Quote pEC50 reported for `O=C1CN(c2cc(-c3ccc(Cl)cc3)nc(-c3cccnc3)n2)CCN1` please.
Result: < 5.00

Problem: Give a short answer stating reported pEC50 for `OCC1CCN(c2cc(-c3ccc(N4CCOCC4)c(F)c3)nc(-c3cccnc3)n2)CC1` .
Result: < 5.00

Problem: Please list pEC50 recorded for the compound `CN1CCN(c2cc(-c3ccc(Cl)cc3)nc(-c3cccnc3)n2)CC1`
Result: < 5.00

* * *

Please provide measured inhibition at 0.123 µM for the entries that follow.
- Tested system: UniProt:P35869
- Sequence (P35869 11-848): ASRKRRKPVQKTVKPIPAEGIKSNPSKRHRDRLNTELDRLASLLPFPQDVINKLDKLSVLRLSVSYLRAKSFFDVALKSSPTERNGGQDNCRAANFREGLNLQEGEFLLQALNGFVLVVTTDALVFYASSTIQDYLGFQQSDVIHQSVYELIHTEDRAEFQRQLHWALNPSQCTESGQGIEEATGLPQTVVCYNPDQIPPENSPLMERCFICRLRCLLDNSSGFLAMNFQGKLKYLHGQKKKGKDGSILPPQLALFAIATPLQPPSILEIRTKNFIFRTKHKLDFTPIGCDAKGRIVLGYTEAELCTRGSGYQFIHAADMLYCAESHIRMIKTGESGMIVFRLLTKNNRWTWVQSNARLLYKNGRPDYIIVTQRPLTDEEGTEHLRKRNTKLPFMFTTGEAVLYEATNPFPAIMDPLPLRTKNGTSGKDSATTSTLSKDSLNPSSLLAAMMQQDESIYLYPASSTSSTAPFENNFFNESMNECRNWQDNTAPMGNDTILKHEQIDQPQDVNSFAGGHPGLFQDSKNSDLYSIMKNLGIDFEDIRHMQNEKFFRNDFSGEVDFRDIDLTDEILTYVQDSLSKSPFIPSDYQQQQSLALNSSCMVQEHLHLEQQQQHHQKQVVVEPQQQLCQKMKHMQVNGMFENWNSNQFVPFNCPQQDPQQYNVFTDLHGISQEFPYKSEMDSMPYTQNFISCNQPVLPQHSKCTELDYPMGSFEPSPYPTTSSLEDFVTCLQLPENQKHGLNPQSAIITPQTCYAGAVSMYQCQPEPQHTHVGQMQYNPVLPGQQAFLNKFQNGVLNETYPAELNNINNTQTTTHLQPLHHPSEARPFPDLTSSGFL
- Assay notes: In Vitro Assay 4: endogenous AhR activity assay (CYP1A1 and CYP1B1 mRNA, qRT-PCR, HepG2 cells)
- Setup conditions: HepG2, read-out: CYP1B1 (% Inhibition)
A number alone suffices; assume %.

Problem: Recall the reported inhibition at 0.123 µM of `O[C@@H]1CN(c2cc(-c3ccc(Cl)cc3)nc(-c3cccnc3)n2)C[C@@H]1F` when tested on UniProt:P35869.
Result: 101

Problem: Check UniProt:P35869 data and give inhibition at 0.123 µM for `CC(=O)N1CCCN(c2cc(-c3ccc(Cl)cc3)nc(-c3cccnc3)n2)C1` .
Result: 99.8

Problem: Enter inhibition at 0.123 µM (test system UniProt:P35869) for `OCCC1CCN(c2cc(-c3ccc(Cl)cc3)nc(-c3cccnc3)n2)CC1`
Result: 100

Problem: Write down measured inhibition at 0.123 µM (UniProt:P35869) for this molecule. `Cc1ccc(-c2cc(N3CCC(CO)CC3)nc(-c3cccnc3)n2)cc1`
Result: 101

Problem: Give measured inhibition at 0.123 µM for `CN1CCN(c2cc(-c3ccc(Cl)cc3)nc(-c3cccnc3)n2)CC1` (UniProt:P35869).
Result: 88.4

Problem: Fetch value of inhibition at 0.123 µM on UniProt:P35869 for `O[C@H]1CCN(c2cc(-c3ccc(Cl)cc3)nc(-c3cncc(F)c3)n2)C1` .
Result: 99.8

Problem: Give reported inhibition at 0.123 µM for `CC1CCN(c2cc(-c3ccc(Cl)cc3)nc(-c3cccnc3)n2)CC1` (UniProt:P35869)
Result: 90.3

Problem: # return inhibition at 0.123 µM of `OCC1CCN(c2cc(-c3ccc(C(F)(F)F)cc3)nc(-c3cccnc3)n2)CC1` (system: UniProt:P35869)
Result: 101

Problem: # assay system UniProt:P35869: give inhibition at 0.123 µM of `CC[C@H](CO)Nc1cc(-c2ccc(Cl)cc2)nc(-c2cccnc2)n1`
Result: 92

* * *

Would you mind telling me the reported IC50 of each entry?
- Tested system: AhR (Homo sapiens, UniProt P35869)
- Assay notes: In Vitro Assay 1: XRE-luciferase reporter assay, antagonism in human cell line (HepG2)
- Setup conditions: Assay 1: AhR-Luc Human Antagonism (IC50, nM), unmarked values: kynurenine 200 μM, 6 hours

Problem: Quickly give me recorded IC50 for `OCC1CCN(c2cc(-c3ccc(N4CCOCC4)cc3)nc(-c3cccnc3)n2)CC1`
Result: < 10 nM

Problem: Entry `OC[C@H]1CN(c2cc(-c3ccc(Cl)cc3)nc(-c3cccnc3)n2)C[C@H]1O` needs its IC50 filled in; supply it.
Result: 10 to 100 nM

Problem: Tell me IC50 reported for `OCCNC1CCN(c2cc(-c3ccc(Cl)cc3)nc(-c3cccnc3)n2)CC1`
Result: > 1000 nM

Problem: Answer with reported IC50 of `O=C1COCCN1c1ccc(-c2cc(N3CCC(CO)CC3)nc(-c3cccnc3)n2)cc1`
Result: > 1000 nM

Problem: Let me know recorded IC50 for `OCC1CCN(c2cc(-c3ccc(N4CCOCC4)cc3)nc(-c3cccnc3O)n2)CC1` , thanks.
Result: 10 to 100 nM

Problem: Tell me its IC50 given `Cn1nnc(-c2nc(-c3ccc(C(F)(F)F)cc3)cc(N3CC[C@H](O)C3)n2)n1` as the entry.
Result: > 1000 nM

Problem: Identify IC50 associated with the compound `OC1CN(c2cc(-c3ccc(Cl)cc3)nc(-c3cccnc3)n2)C1`
Result: 10 to 100 nM

Problem: Query IC50 for `O[C@H]1CCN(c2cc(-c3ccc(N4CCOCC4)nc3)nc(-c3cccnc3)n2)C1`
Result: < 10 nM

Problem: Using known records, supply IC50 for `OC[C@H]1CCN(c2cc(-c3ccc(Cl)cc3)nc(-c3cccnc3)n2)C[C@@H]1F`
Result: < 10 nM

Problem: For the compound `OCC1CCN(c2cc(-c3ccc(N4CCOCC4)c(F)c3)nc(-c3cccnc3)n2)CC1` , give its reported IC50.
Result: < 10 nM

Problem: Note down IC50 recorded for `Oc1ncccc1-c1nc(-c2ccc(N3CCOCC3)nc2)cc(N2CC[C@H](O)C2)n1`
Result: > 1000 nM

Problem: Using known records, supply IC50 for `O[C@H]1CCN(c2cc(-c3ccc(Cl)cc3)nc(-c3ccc(F)nc3)n2)C1`
Result: 100 to 1000 nM

Problem: Query IC50 for `OCC1CCN(c2cc(-c3ccc(Cl)cc3Cl)nc(-c3cccnc3)n2)CC1`
Result: 10 to 100 nM

Problem: Please indicate IC50 recorded for O=S(=O)(CC(O)CO)N1CCN(c2cc(-c3ccc(Cl)cc3)nc(-c3cccnc3)n2)CC1 (centres unmarked)
Result: 10 to 100 nM

Problem: Find the measured IC50 of `OC[C@@H]1CCN(c2cc(-c3ccc(C(F)(F)F)cc3)nc(-c3cccnc3)n2)C[C@H]1O` and report it.
Result: < 10 nM

Problem: Answer with reported IC50 of `O=C(O)[C@@H]1CCN(c2cc(-c3ccc(C(F)(F)F)cc3)nc(-c3cccnc3)n2)C1`
Result: 100 to 1000 nM

Problem: Could you please provide reported IC50 for `CC(=O)N[C@@H]1CN(c2cc(-c3ccc(Cl)cc3)nc(-c3cccnc3)n2)C[C@H]1OC(C)=O` ? Thanks!
Result: 10 to 100 nM

Problem: Recall and state the measured IC50 for `O=S(=O)(CCCO)N1CCN(c2cc(-c3ccc(Cl)cc3)nc(-c3cccnc3)n2)CC1` .
Result: < 10 nM

Problem: Using known records, supply IC50 for `O=C(CCCO)N1CCN(c2cc(-c3ccc(Cl)cc3)nc(-c3cccnc3)n2)CC1`
Result: < 10 nM

Problem: Please list IC50 recorded for the compound `O=C(O)c1ccc(-c2cc(N3CCC(CO)CC3)nc(-c3cccnc3)n2)cc1`
Result: > 1000 nM

Problem: Return value of IC50 for input `Cn1cc(-c2nc(-c3ccc(N4CCOCC4)c(F)c3)cc(N3CCC(CO)CC3)n2)cn1` , no commentary.
Result: 100 to 1000 nM

Problem: // fetch IC50 given entry `OCCNc1ccc(-c2cc(N3CC[C@H](O)C3)nc(-c3cccnc3)n2)cc1`
Result: 100 to 1000 nM

Problem: Query IC50 for `Cn1cc(-c2nc(-c3ccc(C(F)(F)F)cc3)cc(N3CCC(CO)(S(C)(=O)=O)CC3)n2)cn1`
Result: < 10 nM

Problem: Name the recorded IC50 of the compound listed here: `OC[C@@H]1CN(c2cc(-c3ccc(C(F)(F)F)cc3)nc(-c3cccnc3)n2)C[C@H]1O`
Result: < 10 nM

Problem: In one line, give reported IC50 of the entry `O[C@H]1CCN(c2cc(-c3ccc(Cl)cc3)nc(-c3cnoc3)n2)C1` .
Result: 100 to 1000 nM

Problem: Using the record for `Cn1cc(-c2nc(-c3ccc(Cl)cc3)cc(N3CC[C@@H](C(=O)O)C3)n2)cn1` , state its measured IC50.
Result: > 1000 nM

Problem: Give the measured IC50 for `OC[C@@H]1CN(c2cc(-c3ccc(C(F)(F)F)cc3)nc(-c3cccnc3)n2)CCN1`
Result: 100 to 1000 nM

Problem: Report IC50, nothing else, for this compound: `CS(=O)(=O)N1CCN(c2cc(-c3ccc(Cl)cc3)nc(-c3cccnc3)n2)CC1`
Result: < 10 nM

Problem: Please give measured IC50 of the following entry: `OC[C@@H]1CCN(c2cc(-c3ccc(C(F)(F)F)cc3)nc(-c3cccnc3)n2)C[C@H]1F`
Result: < 10 nM

Problem: Return reported IC50. Input compound: `O[C@@H]1CN(c2cc(-c3ccc(C(F)(F)F)cc3)nc(-c3cccnc3)n2)C[C@@H]1O`
Result: > 1000 nM

Problem: Return value of IC50 for input `O=C(CO)NC1CCN(c2cc(-c3ccc(Cl)cc3)nc(-c3cccnc3)n2)CC1` , no commentary.
Result: 10 to 100 nM

Problem: Given the compound `Cc1ccc(-c2cc(N3CCC(CO)CC3)nc(-c3cccnc3)n2)cc1` , write its reported IC50.
Result: 10 to 100 nM
